B1: HDV Ribozyme (parent)
chain: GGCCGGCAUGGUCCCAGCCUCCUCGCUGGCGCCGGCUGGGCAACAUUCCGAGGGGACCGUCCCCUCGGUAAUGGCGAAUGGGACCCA

- Variants of: B1
- Test Protocol: self-cleavage, relative activity (ratio to wild type); higher = more cleavage; co-transcriptional
Short version: self-cleavage at least 0.7 is satisfied, less is not satisfied.

[ask] Determine whether this variant has self-cleavage no lower than 0.7: C4U C41A
[reply] not satisfied

[ask] Dear colleague, could you confirm whether A71G G80A has self-cleavage at or above 0.7?
[reply] not satisfied

[ask] Does self-cleavage meet or surpass 0.7 for C33U A42U ?
[reply] not satisfied

[ask] Threshold query (self-cleavage >= 0.7) on C57A G73C
[reply] not satisfied

[ask] Check this variant for self-cleavage at or above 0.7: G40A G73U
[reply] not satisfied

[ask] hey, is self-cleavage for this one >= 0.7? G6A G81U
[reply] not satisfied

[ask] Kindly determine if self-cleavage recorded for C30A C32U is above or exactly 0.7.
[reply] not satisfied

[ask] Test whether the variant U47A G76A records self-cleavage of 0.7 or higher.
[reply] satisfied

[ask] Could you verify whether the entry U23G C63A shows self-cleavage of no less than 0.7?
[reply] not satisfied

[ask] Quick check, self-cleavage >= 0.7? C33U C86G
[reply] satisfied

[ask] // inclusive: self-cleavage at least 0.7? input: G67C U69G
[reply] satisfied

[ask] Threshold query (self-cleavage >= 0.7) on C26U U46A
[reply] satisfied

[ask] Please indicate if the recorded self-cleavage for U69C A70C meets or exceeds 0.7.
[reply] satisfied

[ask] Could you please find out whether G52U A56G has self-cleavage that meets 0.7 or exceeds it?
[reply] satisfied

[ask] Assess whether reported self-cleavage for G54C A87G sits at 0.7 or higher.
[reply] satisfied

[ask] Record G59C C85U ; criterion: self-cleavage no lower than 0.7. Met?
[reply] satisfied

[ask] Decide: self-cleavage of G5C G54A >= 0.7?
[reply] not satisfied

[ask] In plain terms: is recorded self-cleavage at least 0.7 for A77G G80C ?
[reply] not satisfied

[ask] For this variant, is measured self-cleavage 0.7 or higher? G17A C58A
[reply] satisfied

[ask] Given G50C C66A , state whether its self-cleavage is at least 0.7.
[reply] satisfied

[ask] Decide: is the reported value of self-cleavage for G52A C58A equal to or greater than 0.7?
[reply] satisfied

# credit: the RNAGym collection of RNA variant scans (doi:10.7554/elife.80360)
